target: human 11β-HSD-2 (Homo sapiens); experiment: Human 11β-HSD-2 enzymatic SPA assay; type: biochemical; conditions: human enzyme, SPA
Sequence (P80365 whole entry): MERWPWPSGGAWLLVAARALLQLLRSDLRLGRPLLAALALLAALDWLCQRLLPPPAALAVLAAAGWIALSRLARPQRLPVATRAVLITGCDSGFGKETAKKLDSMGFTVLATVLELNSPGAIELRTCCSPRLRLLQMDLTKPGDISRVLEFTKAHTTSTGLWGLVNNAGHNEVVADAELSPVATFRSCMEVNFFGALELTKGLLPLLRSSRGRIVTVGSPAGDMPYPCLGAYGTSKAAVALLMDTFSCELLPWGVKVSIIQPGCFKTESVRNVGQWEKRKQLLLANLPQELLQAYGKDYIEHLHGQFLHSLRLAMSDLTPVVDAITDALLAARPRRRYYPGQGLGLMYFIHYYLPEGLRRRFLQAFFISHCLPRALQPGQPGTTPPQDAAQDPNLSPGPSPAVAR
Endpoint: IC50 (µM)

Cc1ccccc1CN1CCC(C)(C(=O)NC2C3CC4CC(C3)C(C(N)=O)C2C4)C1=O (centres unmarked)
12
CC(C)(C)OC(=O)Nc1ccc(OC(C)(C)C(=O)N[C@@H]2[C@@H]3C[C@@H]4C[C@H]2C[C@@](C(N)=O)(C4)C3)cc1
37
NC(=O)C12CC3CC(C1)C(NC(=O)C1(Oc4ccc(Cl)cc4)CCC1)C(C3)C2 (centres unmarked)
90

a: CC1(C)C(=O)N(C2C3CC4CC2CC(C#N)(C4)C3)CC1COc1ccc(C#N)cn1 (centres unmarked)
b: CC(C)(Oc1ccc(O)cc1)C(=O)N[C@@H]1[C@@H]2C[C@@H]3C[C@H]1C[C@@](C(N)=O)(C3)C2
Asked: Among a and b , which shows a numerically higher IC50 result? Use the label to indicate which entry you chose.
Given back: b
(b: 35 µM, a: 5.27 µM)

Recorded values, source patent US8871208B2.
